From: patent US10266566

- ASSAY_TARGET: T1, Human polyclonal immunoglobulin G (IgG) (human)
- T1 construct: also called hIgG; IVIG
- PROTOCOL_NOTES: affinity chromatography, peptide resin, 10 mg/mL hIgG in PBS; 3rd run, after alpha-chymotrypsin and then trypsin
Where no end group is shown, it is not given here. [ ]: non-standard residue; d: D form. Trp(1-Me) = Cn1cc(C[C@H](N)C(=O)O)c2ccccc21; Cit = NC(=O)NCCC[C@H](N)C(=O)O
READOUT_LABEL: IgG yield (%)

• HYFKFD-{Toyopearl AF‑Amino‑650M resin} (Synthetic hexapeptide on Toyopearl resin; also called HYFKFD-Toyopearl) = 71

(I) H[Trp(1-Me)][Cit]G[Trp(1-Me)]V-{Toyopearl AF‑Amino‑650M resin} (Variant of HWRGWV on Toyopearl resin; also called HWMetCitGWMetV-Toyopearl) [HWMetCitGWMetV]
(II) HFRRHL-{Toyopearl AF‑Amino‑650M resin} (Synthetic hexapeptide on Toyopearl resin; also called HFRRHL-Toyopearl)
Ask: // returns I or II , whichever has the lower IgG yield Mark your selection by writing its label.
Reply: II
